measurementTarget: class A β-lactamase TEM-1 (Escherichia coli, UniProt P62593)
Sequence (P62593 24-286 limits assumed): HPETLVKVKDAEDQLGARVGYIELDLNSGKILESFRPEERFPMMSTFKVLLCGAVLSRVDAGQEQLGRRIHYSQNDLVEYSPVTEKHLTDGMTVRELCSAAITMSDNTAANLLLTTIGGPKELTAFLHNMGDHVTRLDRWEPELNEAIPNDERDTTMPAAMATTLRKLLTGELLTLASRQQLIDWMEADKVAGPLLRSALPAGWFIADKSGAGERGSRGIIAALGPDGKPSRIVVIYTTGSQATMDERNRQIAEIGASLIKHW
assayRemarks: IC50 determination, β-lactamase inhibition (nitrocefin, spectrophotometric)
Format: biochemical, E. coli
assayContext: enzyme 4.3 nM; 10 minutes preincubation at 25° C.; nitrocefin 50 μg/ml; pH 7.0
Counter-ions that a name gives are not always drawn.
Recorded IC50 by entry
The reply should be a number in nM, with the unit left off.

> print(dat)
                                   compound  numericresult
1  CCOC(=O)N1CCc2sc(C=C3C(=O)N4C(C(=O)O)=CSC34)cc2C1 (stereo not shown)            2.8

Annotate the compound O=C(O)C1=CS[C@@H]2/C(=C\c3cn4c(n3)CNCC4)C(=O)N12 [Example 3, sodium salt] with its measured IC50.
5.4

Annotate the compound O=C(O)C1=CS[C@@H]2/C(=C\c3cc4n(n3)CCC4)C(=O)N12 [Example 8, sodium salt] with its measured IC50.
1.2

Annotate the compound O=C(O)C1=CS[C@@H]2/C(=C\c3cc4c(s3)CCN(C(=O)c3cccnc3)C4)C(=O)N12 with its measured IC50.
6.1
